Test system: transgenic soybean plants
experiment_description: R0 soybean 2,4-D spray test of 2,4-D optimized variants
Format: in vivo
condition_summary: 2,4-D rate 2X (1.5 lb ae/acre); single copy R0 soy; seven days after application
parameter: Events with <20% injury
Answers are plain numbers.

## Input Could you share which Events with <20% injury value was measured for MON-HT14: engineered oxygenase protein, amino acid sequence SEQ ID NO:48 (protein) MHAALTPLTNKYRHIDVQPLTGVLGAEITGVDLREPLDDSTWNEILDAFHTYQVIYFPGQAITNEQHIAFSRRFGPVDPVPILKSIEGYPEVQMIRREANESSRYIGDDWHADSTFLDAPPAAVVMRAIEVPEYGGDTGFLSMYSAWETLSPTMQATIEGLNVVHSATKVFGSLYQATNWRFSGTSVKVMDVDAGDRETVHPLVVTHPVTGRRALYCNQVYCQKIQGMTDAESKSLLQFLYEHATQFDFTCRVRWKKDQVLVWDNLCTMHRAVPDYAGKFRYLTRTTVAGDKPSR ?
## Output 9
